Attribution: paper PMC11986180

Exercise: for every item that follows, state its recorded Stability RE %.
Format: physicochemical, rat
Conditions: Room temperature (8 h), plasma QC 50 ng/mL
Method: Aconitine, hypaconitine, mesaconitine, lappaconitine, benzoylaconitine, and yohimbine were individually dissolved in 10 mL of methanol to prepare the stock solution. These compounds were subsequently diluted with methanol to achieve final concentrations of 10 and 5.0 μg/mL to prepare the working standard solutions, which were stored at 4°C before use. […]
Reply with just the number (in %).

Which measured Stability RE % value corresponds to COCC12CN(C)C3C4C(OC)C1C3(C(OC)CC2O)C1CC2(O)C(OC)C(O)C4(OC(C)=O)C1C2OC(=O)c1ccccc1 (stereo not shown) ? −12.74

Which measured Stability RE % value corresponds to CCN1C[C@]2(COC)[C@H](O)C[C@H](OC)[C@@]34[C@@H]5C[C@@]6(O)[C@H](OC(=O)c7ccccc7)[C@@H]5[C@@](OC(C)=O)([C@@H]([C@H](OC)[C@H]23)[C@@H]14)[C@@H](O)[C@@H]6OC ? −8.69

Which measured Stability RE % value corresponds to COC[C@@]12CC[C@H](OC)[C@]34C(C([C@H](OC)[C@H]13)[C@]1(OC(C)=O)[C@H]3[C@@H](OC(=O)c5ccccc5)[C@](O)(C[C@H]34)[C@@H](OC)[C@@H]1O)N(C)C2 ? −7.90

Which measured Stability RE % value corresponds to CCN1CC2(COC)C(O)CC(OC)C34C5CC6(O)C(OC)C(O)C(O)(C5C6OC(=O)c5ccccc5)C(C(OC)C23)C14 (stereo not shown) ? −7.98

====

Assay: Pharmacokinetics of aconitine alkaloids in rat plasma after oral administration of Fuzi extract (d-SPE-LC-MS/MS)
Assay type: in vivo, Sprague–Dawley rats
Details: male, Sprague-Dawley, oral 10 mg/kg Fuzi extract, read-out: maximum concentrations (Cmax)
Method: Male Sprague–Dawley rats (250–300 g, 8–10 weeks old) were procured from Shenzhen Bao'an Authentic TCM Therapy Hospital (Guangzhou, China) and acclimatized in a controlled environment (temperature: 25°C ± 2°C; humidity: 50% ± 5%; 12-h dark–light cycle) for at least 3 days before experimentation (Animal License Number: SCXK [Guangdong] 2022-0002). […] The pharmacokinetic parameters of aconitine alkaloids in rats were calculated using Phoenix WinNonlin 8.3 software. […]
Exercise: for every item that follows, state its recorded Cmax.
Reply with just the number (in ng/mL).

Which measured Cmax value corresponds to CCN1CC2(OC(=O)c3ccccc3NC(C)=O)CCC(OC)C34C1C(CC23)C1(O)CC(OC)C2CC4C1(O)C2OC (centres unmarked) [Lappaconitine] ? 1.28

Which measured Cmax value corresponds to COCC12CN(C)C3C4C(OC)C1C3(C(OC)CC2O)C1CC2(O)C(OC)C(O)C4(OC(C)=O)C1C2OC(=O)c1ccccc1 (centres unmarked) [Mesaconitine] ? 1.71

Which measured Cmax value corresponds to CCN1CC2(COC)C(O)CC(OC)C34C5CC6(O)C(OC)C(O)C(O)(C5C6OC(=O)c5ccccc5)C(C(OC)C23)C14 (centres unmarked) [Benzoylaconitine] ? 0.939

Which measured Cmax value corresponds to COC[C@@]12CC[C@H](OC)[C@]34C(C([C@H](OC)[C@H]13)[C@]1(OC(C)=O)[C@H]3[C@@H](OC(=O)c5ccccc5)[C@](O)(C[C@H]34)[C@@H](OC)[C@@H]1O)N(C)C2 [Hypaconitine] ? 9.92

Which measured Cmax value corresponds to CCN1C[C@]2(COC)[C@H](O)C[C@H](OC)[C@@]34[C@@H]5C[C@@]6(O)[C@H](OC(=O)c7ccccc7)[C@@H]5[C@@](OC(C)=O)([C@@H]([C@H](OC)[C@H]23)[C@@H]14)[C@@H](O)[C@@H]6OC [Aconitine] ? 7.47

====

Format: physicochemical, rat
Conditions: Freeze (−80°C for 30 d), plasma QC 50 ng/mL
Exercise: for every item that follows, state its recorded Stability RE %.

Which measured Stability RE % value corresponds to COC[C@@]12CC[C@H](OC)[C@]34C(C([C@H](OC)[C@H]13)[C@]1(OC(C)=O)[C@H]3[C@@H](OC(=O)c5ccccc5)[C@](O)(C[C@H]34)[C@@H](OC)[C@@H]1O)N(C)C2 ? −2.50%

Which measured Stability RE % value corresponds to CCN1C[C@]2(COC)[C@H](O)C[C@H](OC)[C@@]34[C@@H]5C[C@@]6(O)[C@H](OC(=O)c7ccccc7)[C@@H]5[C@@](OC(C)=O)([C@@H]([C@H](OC)[C@H]23)[C@@H]14)[C@@H](O)[C@@H]6OC ? −9.37%

Which measured Stability RE % value corresponds to CCN1CC2(COC)C(O)CC(OC)C34C5CC6(O)C(OC)C(O)C(O)(C5C6OC(=O)c5ccccc5)C(C(OC)C23)C14 (stereo not shown) ? −10.48%

Which measured Stability RE % value corresponds to COCC12CN(C)C3C4C(OC)C1C3(C(OC)CC2O)C1CC2(O)C(OC)C(O)C4(OC(C)=O)C1C2OC(=O)c1ccccc1 (stereo not shown) ? −9.46%

====

Exercise: for every item that follows, state its recorded Stability RE %.
Format: physicochemical, rat
Conditions: Freeze (−80°C for 30 d), plasma QC 6.25 ng/mL
Method: Aconitine, hypaconitine, mesaconitine, lappaconitine, benzoylaconitine, and yohimbine were individually dissolved in 10 mL of methanol to prepare the stock solution. These compounds were subsequently diluted with methanol to achieve final concentrations of 10 and 5.0 μg/mL to prepare the working standard solutions, which were stored at 4°C before use. […]
Reply with just the number (in %).

Which measured Stability RE % value corresponds to CCN1CC2(COC)C(O)CC(OC)C34C5CC6(O)C(OC)C(O)C(O)(C5C6OC(=O)c5ccccc5)C(C(OC)C23)C14 (stereo not shown) [Benzoylaconitine] ? −7.70

Which measured Stability RE % value corresponds to COC[C@@]12CC[C@H](OC)[C@]34C(C([C@H](OC)[C@H]13)[C@]1(OC(C)=O)[C@H]3[C@@H](OC(=O)c5ccccc5)[C@](O)(C[C@H]34)[C@@H](OC)[C@@H]1O)N(C)C2 [Hypaconitine] ? −3.27

Which measured Stability RE % value corresponds to CCN1C[C@]2(COC)[C@H](O)C[C@H](OC)[C@@]34[C@@H]5C[C@@]6(O)[C@H](OC(=O)c7ccccc7)[C@@H]5[C@@](OC(C)=O)([C@@H]([C@H](OC)[C@H]23)[C@@H]14)[C@@H](O)[C@@H]6OC [Aconitine] ? 4.94

Which measured Stability RE % value corresponds to COCC12CN(C)C3C4C(OC)C1C3(C(OC)CC2O)C1CC2(O)C(OC)C(O)C4(OC(C)=O)C1C2OC(=O)c1ccccc1 (stereo not shown) [Mesaconitine] ? −7.23

====

Experiment: Pharmacokinetics of aconitine alkaloids in rat plasma after oral administration of Fuzi extract (d-SPE-LC-MS/MS)
Type: in vivo, Sprague–Dawley rats
Conditions: male, Sprague-Dawley, n = 6, oral (gastric gavage) 10 mg/kg Fuzi extract
measured-property: AUC(0-inf) (ng·h/mL)
Reply with just the number (in ng·h/mL).

Which measured AUC(0-inf) value corresponds to COCC12CN(C)C3C4C(OC)C1C3(C(OC)CC2O)C1CC2(O)C(OC)C(O)C4(OC(C)=O)C1C2OC(=O)c1ccccc1 (centres unmarked) [Mesaconitine] ? 8.11

Which measured AUC(0-inf) value corresponds to CCN1C[C@]2(COC)[C@H](O)C[C@H](OC)[C@@]34[C@@H]5C[C@@]6(O)[C@H](OC(=O)c7ccccc7)[C@@H]5[C@@](OC(C)=O)([C@@H]([C@H](OC)[C@H]23)[C@@H]14)[C@@H](O)[C@@H]6OC [Aconitine] ? 26.9

Which measured AUC(0-inf) value corresponds to CCN1CC2(COC)C(O)CC(OC)C34C5CC6(O)C(OC)C(O)C(O)(C5C6OC(=O)c5ccccc5)C(C(OC)C23)C14 (centres unmarked) [Benzoylaconitine] ? 14.1

Which measured AUC(0-inf) value corresponds to CCN1CC2(OC(=O)c3ccccc3NC(C)=O)CCC(OC)C34C1C(CC23)C1(O)CC(OC)C2CC4C1(O)C2OC (centres unmarked) [Lappaconitine] ? 2.42

Which measured AUC(0-inf) value corresponds to COC[C@@]12CC[C@H](OC)[C@]34C(C([C@H](OC)[C@H]13)[C@]1(OC(C)=O)[C@H]3[C@@H](OC(=O)c5ccccc5)[C@](O)(C[C@H]34)[C@@H](OC)[C@@H]1O)N(C)C2 [Hypaconitine] ? 80.5

====

Test: Pharmacokinetics of aconitine alkaloids in rat plasma after oral administration of Fuzi extract (d-SPE-LC-MS/MS)
Type: in vivo, Sprague–Dawley rats
Conditions: male, Sprague-Dawley, n = 6, oral (gastric gavage) 10 mg/kg Fuzi extract
Would you mind labelling by AUC(0-t)? At or over 4 ng·h/mL is TRUE, under is FALSE.

Does CCN1CC2(COC)C(O)CC(OC)C34C5CC6(O)C(OC)C(O)C(O)(C5C6OC(=O)c5ccccc5)C(C(OC)C23)C14 (centres unmarked) have a reported AUC(0-t) of at least 4 ng·h/mL? FALSE

Does COC[C@@]12CC[C@H](OC)[C@]34C(C([C@H](OC)[C@H]13)[C@]1(OC(C)=O)[C@H]3[C@@H](OC(=O)c5ccccc5)[C@](O)(C[C@H]34)[C@@H](OC)[C@@H]1O)N(C)C2 have a reported AUC(0-t) of at least 4 ng·h/mL? TRUE

Does COCC12CN(C)C3C4C(OC)C1C3(C(OC)CC2O)C1CC2(O)C(OC)C(O)C4(OC(C)=O)C1C2OC(=O)c1ccccc1 (centres unmarked) have a reported AUC(0-t) of at least 4 ng·h/mL? TRUE

Does CCN1C[C@]2(COC)[C@H](O)C[C@H](OC)[C@@]34[C@@H]5C[C@@]6(O)[C@H](OC(=O)c7ccccc7)[C@@H]5[C@@](OC(C)=O)([C@@H]([C@H](OC)[C@H]23)[C@@H]14)[C@@H](O)[C@@H]6OC have a reported AUC(0-t) of at least 4 ng·h/mL? TRUE

Does CCN1CC2(OC(=O)c3ccccc3NC(C)=O)CCC(OC)C34C1C(CC23)C1(O)CC(OC)C2CC4C1(O)C2OC (centres unmarked) have a reported AUC(0-t) of at least 4 ng·h/mL? FALSE
